testMethodNotes: qHTS Assay for NPC1 Promoter Activators; further: nearly all actives have a fitted effect of over 60% in size;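 on activation: reporter is driven by a mutant NPC1 promoter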
conditionDescription: Huh7 NPC1 promoter luciferase reporter, 24 h; series mostly up to 9.22 µM
Hit rate of the full screen: of about 320,000 compounds, about 7,600 (2.4%) were called active. Roughly 3% stayed inconclusive and do not appear here. The call rests on the fitted dose curve; in most records, active means well fitted activation curve with a large enough effect; inconclusive means small, poorly fitted or top-dose-only effect; inactive means no such curve, though single readings can be large or run the other way. This excerpt belongs to a sample that is enriched for actives.
Form entry, call: pick from active, inactive

Assay result, entry `O=C(/C=C/c1ccc(Cl)cc1)Nc1ccc(S(=O)(=O)Nc2ncccn2)cc1` — outcome?
inactive

Just curious, what result did `COc1ccc(/C=C2\CCc3ccccc3C2=O)c(OC)c1OC` get here?
inactive

Test call, this compound: `CN(Cc1ccccc1)C(=O)CSc1nc2ccccc2[nH]1`
inactive

What classification did `COc1ccc(NS(=O)(=O)c2cccc(C(=O)NCCc3ccc(S(N)(=O)=O)cc3)c2)cc1` end up with in this test?
inactive

Record request — test call for `C(=N/Nc1cc(N2CCOCC2)nc(N2CCOCC2)n1)/c1ccccc1`
inactive

What did this assay record as the result for `Cc1cc(C)nc(NC(=O)/C=C/c2ccc(Cl)cc2)n1` ?
inactive

How was `COc1ccccc1C(=O)Nc1ccc(C)c(S(=O)(=O)N2CCCCC2)c1` classified in this test?
inactive

# lookup: test call for `Cc1ccccc1N/N=C/c1ccc(N2CCOCC2)cc1`
active

Hi, do you know how `COc1ccc(NC(=O)CN(C)C(=O)c2cc(C3CC3)nn2-c2ccccc2)cc1` came out in this test?
inactive

Returns: the outcome recorded for CCCCc1ccc(NC(=O)CN2C(=O)NC(Cc3ccccc3)C2=O)cc1 (stereo not drawn) in this assay.
inactive

Name the outcome recorded for `COc1ccc2c(c1OC)C(=O)c1ccccc1C2=O` in the assay.
active

Name the outcome recorded for `COc1ccc2c(c1OC)C(=O)N(c1ncn[nH]1)C2` in the assay.
inactive

Each compound tested received a call. Report the one for `O=C(Nc1ccc(NC(=O)c2ccccc2F)cc1)c1ccccc1F` .
inactive

Recorded test call requested for `O=C(Cn1nnc(-c2ccccc2)n1)NC(=O)NC1CCCC1`
inactive

Just curious, what result did `CCN(CC)c1ccc(C(=O)N/N=C/c2ccc(N3CCOCC3)cc2)cc1` get here?
inactive

Just curious, what result did CCOc1ccc(NC(=O)COC(=O)C2CCC(=O)N2)c([N+](=O)[O-])c1 (stereo not drawn) get here?
inactive

I would be grateful if you could indicate the recorded call for `O=C(Nc1nnc(-c2ccccc2F)s1)c1ccccc1F` .
active

I would be grateful if you could indicate the recorded call for `CN(CCOc1ccccc1)C(=O)c1cc(-c2ccco2)nc2ccccc12` .
inactive

Just for reference, PubChem BioAssay AID485313 is where these values come from.
